Quick list: Minimum inhibitory concentration (MIC) MRSA(SA11I4) per entry.
# System: MRSA(SA11I4)
# Format: cell-based, Staphylococcus aureus
# Method: Susceptibility to teixobactin and its analogues was tested on the selected Gram-positive strains using Tecan Freedom EVO high-throughput automated platform, following the standard broth dilution method as described by the Clinical and Laboratory Standards Institute ^3. MICS were determined according to CLSI guideline.
Measurement kind: Minimum inhibitory concentration (MIC) MRSA(SA11I4) (µg/mL)

[
  {
    "Compound": "CC[C@@H](C)[C@@H](NC(=O)[C@@H](CCC(N)=O)NC(=O)[C@H](CCCNC(=N)N)NC(=O)[C@@H](NC(=O)[C@@H](Cc1ccccc1)NC)[C@@H](C)CC)C(=O)N[C@H](C(=O)N[C@@H](CO)C(=O)N[C@H]1C(=O)N[C@@H](C)C(=O)N[C@@H](C2CCCCC2)C(=O)N[C@@H]([C@@H](C)CC)C(=O)O[C@H]1C)[C@@H](C)CC [T87]",
    "Reading": 2
  },
  {
    "Compound": "CCCC[C@@H]1NC(=O)[C@H](C)NC(=O)[C@H](NC(=O)[C@H](CO)NC(=O)[C@@H](NC(=O)[C@H](NC(=O)[C@@H](CCC(N)=O)NC(=O)[C@H](CO)NC(=O)[C@@H](NC(=O)[C@@H](Cc2ccccc2)NC)[C@@H](C)CC)[C@H](C)CC)[C@@H](C)CC)[C@H](C)OC(=O)[C@H]([C@@H](C)CC)NC1=O [Nle10-teixobactin]",
    "Reading": 2
  },
  {
    "Compound": "CC[C@@H](C)[C@@H](NC(=O)[C@@H](CCC(N)=O)NC(=O)[C@H](CO)NC(=O)[C@@H](NC(=O)[C@@H](Cc1ccccc1)NC)[C@@H](C)CC)C(=O)N[C@H](C(=O)N[C@@H](CO)C(=O)N[C@H]1C(=O)N[C@@H](C)C(=O)N[C@@H](C2CCCCC2)C(=O)N[C@@H]([C@@H](C)CC)C(=O)N[C@H]1C)[C@@H](C)CC [T83]",
    "Reading": 1
  },
  {
    "Compound": "CC[C@@H](C)[C@@H](NC(=O)[C@@H](CCC(N)=O)NC(=O)[C@H](CO)NC(=O)[C@@H](NC(=O)[C@@H](Cc1ccccc1)NC)[C@@H](C)CC)C(=O)N[C@H](C(=O)N[C@@H](CO)C(=O)N[C@H]1C(=O)N[C@@H](C)C(=O)N[C@@H](CCSC)C(=O)N[C@@H]([C@@H](C)CC)C(=O)O[C@H]1C)[C@@H](C)CC [Met10-teixobactin/Methibactin, Met10-teixobactin]",
    "Reading": 1
  },
  {
    "Compound": "CC[C@@H](C)[C@@H](NC(=O)[C@@H](CCC(N)=O)NC(=O)[C@H](CO)NC(=O)[C@@H](NC(=O)[C@@H](Cc1ccccc1)NC)[C@@H](C)CC)C(=O)N[C@H](C(=O)N[C@@H](CO)C(=O)N[C@H]1C(=O)N[C@@H](C)C(=O)N[C@@H](CC2CC2)C(=O)N[C@@H]([C@@H](C)CC)C(=O)O[C@H]1C)[C@@H](C)CC [β-cyclopropyl-Ala10-teixobactin]",
    "Reading": 2
  },
  {
    "Compound": "CC[C@@H](C)[C@@H](NC(=O)[C@@H](CCC(N)=O)NC(=O)[C@H](CO)NC(=O)[C@@H](NC(=O)[C@@H](Cc1ccccc1)NC)[C@@H](C)CC)C(=O)N[C@H](C(=O)N[C@@H](CO)C(=O)N[C@H]1C(=O)N[C@@H](C)C(=O)N[C@@H]([C@@H](C)CC)C(=O)N[C@@H]([C@@H](C)CC)C(=O)N[C@H]1C)[C@@H](C)CC [T84]",
    "Reading": 1
  },
  {
    "Compound": "CC[C@@H](C)[C@@H](NC(=O)[C@@H](CCC(N)=O)NC(=O)[C@H](CO)NC(=O)[C@@H](NC(=O)[C@@H](Cc1ccccc1)NC)[C@@H](C)CC)C(=O)N[C@H](C(=O)N[C@@H](CO)C(=O)N[C@H]1C(=O)N[C@@H](C)C(=O)N[C@@H](C2CCCCC2)C(=O)N[C@@H]([C@@H](C)CC)C(=O)O[C@H]1C)[C@@H](C)CC [Chg10-teixobactin]",
    "Reading": 1
  },
  {
    "Compound": "CC[C@@H](C)[C@@H](NC(=O)[C@@H](CCC(N)=O)NC(=O)[C@@H](NC(=O)[C@@H](NC(=O)[C@@H](Cc1ccccc1)NC)[C@@H](C)CC)[C@@H](C)CC)C(=O)N[C@H](C(=O)N[C@@H](CO)C(=O)N[C@H]1C(=O)N[C@@H](C)C(=O)N[C@@H](C2CCCCC2)C(=O)N[C@@H]([C@@H](C)CC)C(=O)O[C@H]1C)[C@@H](C)CC [T88]",
    "Reading": 8
  },
  {
    "Compound": "CC[C@@H](C)[C@@H](NC(=O)[C@@H](CCC(N)=O)NC(=O)[C@H](CO)NC(=O)[C@@H](NC(=O)[C@@H](Cc1ccccc1)NC)[C@@H](C)CC)C(=O)N[C@H](C(=O)N[C@@H](CO)C(=O)N[C@H]1C(=O)N[C@@H](C)C(=O)N[C@@H](CC2CCCCC2)C(=O)N[C@@H]([C@@H](C)CC)C(=O)O[C@H]1C)[C@@H](C)CC [Cha10-teixobactin]",
    "Reading": 2
  },
  {
    "Compound": "CC[C@@H](C)[C@@H](NC(=O)[C@@H](CCC(N)=O)NC(=O)[C@H](CO)NC(=O)[C@@H](NC(=O)[C@@H](Cc1ccccc1)NC)[C@@H](C)CC)C(=O)N[C@H](C(=O)N[C@@H](CO)C(=O)N[C@H]1C(=O)N[C@@H](C)C(=O)N[C@@H](CCSC)C(=O)N[C@@H]([C@@H](C)CC)C(=O)N[C@H]1C)[C@@H](C)CC [T86]",
    "Reading": 2
  }
]
